Where these numbers come from: patent US20200223889A1

experimental-target: human melanocortin 4 receptor (human), P32245
Sequence (P32245 whole entry): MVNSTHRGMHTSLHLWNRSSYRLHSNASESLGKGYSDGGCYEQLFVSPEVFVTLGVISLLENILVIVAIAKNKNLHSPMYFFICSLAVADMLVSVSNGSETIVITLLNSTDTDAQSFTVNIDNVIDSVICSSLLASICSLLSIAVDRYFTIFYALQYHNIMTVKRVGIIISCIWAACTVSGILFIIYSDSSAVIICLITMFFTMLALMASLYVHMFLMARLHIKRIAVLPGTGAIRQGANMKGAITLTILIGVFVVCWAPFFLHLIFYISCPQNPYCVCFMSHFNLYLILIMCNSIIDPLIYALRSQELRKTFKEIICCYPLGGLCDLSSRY
protocol-description: competition with 125-NDP-α-MSH, BHK human MC4R membranes
measured-metric: Ki (nM)

Below: 4 binders and their reported Ki.
binder	measured-metric	reading
CAHFRWCAHFRW (modifications not checked) [Chem. 111]	Ki	0.04
CAHFRWCAAFAW (modifications not checked) [Chem. 11]	Ki	0.25
CAHFRWCAKKKR (modifications not checked) [Chem. 85]	Ki	0.02
CAHFRWCRFFNA (modifications not checked) [Chem. 12]	Ki	0.28

a. CAHFRWCAEEAW (modifications not checked) [Chem. 102]
b. CAHFRWCRFFNAF (modifications not checked) [Chem. 13]
Rank a against b by their Ki values and give the higher one. Mark your answer with the label of the selected entry.
a
(a: 10.1 nM, b: 0.26 nM)
